biological target: UniProt P23458; experiment: Inhibition of cytoplasmic recombinant human GST-tagged JAK1 (886 to 1154 residues) expressed in insect cells using FITC-C6-KKHTDDGYMPMSPGVA-NH as substrate after 10 mins by caliper assay
The molecules listed here are annotated with their IC50.
Only the number, expressed in nM, is required.

Solved entries (count: 4):
Input: Look up IC50: Cc1cnc(Nc2cc(N3C[C@@H]4C[C@H]3CN4C)ccc2F)nc1Nc1cccc(CO)c1
Output: 117

Input: Look up IC50: Cc1cnc(Nc2cccc(N3CCN(C)CC3)c2)nc1Nc1cccc(CO)c1
Output: 55

Input: Look up IC50: CN1CCN(c2cc(Nc3ncc(F)c(Nc4cccc(CO)c4)n3)cc(S(C)(=O)=O)c2)CC1
Output: 42

Input: Look up IC50: COCCN1CCN(c2cc(Nc3ncc(C)c(Nc4cccc(CO)c4)n3)cc(S(C)(=O)=O)c2)CC1
Output: 12

Now consider a different molecule.
Input: Look up IC50: Cc1cnc(Nc2cc(N3CCN(CCO)CC3)cc(S(C)(=O)=O)c2)nc1Nc1cccc(CO)c1
Output: 6

###

The molecules listed here are annotated with their microsomal CLint.
test: Intrinsic clearance in human liver microsomes; type: ADME, microsome; conditions: read-out: CLH
Only the number, expressed in µL/min/mg, is required.

Input: Look up microsomal CLint: Cc1cnc(Nc2cc(N3CCN(C)CC3)cc(S(C)(=O)=O)c2)nc1Nc1cccc(CO)c1
Output: 59.5

Now consider a different molecule.
Input: Look up microsomal CLint: Cc1cnc(Nc2cc(N3C[C@@H]4C[C@H]3CN4C)cc(S(C)(=O)=O)c2)nc1Nc1cccc(CO)c1
Output: 7.32

###

target: JAK2 (Homo sapiens); test: Inhibition of catalytic recombinant human GST-tagged JAK2 expressed in baculovirus at 1 uM
Sequence (O60674 whole entry): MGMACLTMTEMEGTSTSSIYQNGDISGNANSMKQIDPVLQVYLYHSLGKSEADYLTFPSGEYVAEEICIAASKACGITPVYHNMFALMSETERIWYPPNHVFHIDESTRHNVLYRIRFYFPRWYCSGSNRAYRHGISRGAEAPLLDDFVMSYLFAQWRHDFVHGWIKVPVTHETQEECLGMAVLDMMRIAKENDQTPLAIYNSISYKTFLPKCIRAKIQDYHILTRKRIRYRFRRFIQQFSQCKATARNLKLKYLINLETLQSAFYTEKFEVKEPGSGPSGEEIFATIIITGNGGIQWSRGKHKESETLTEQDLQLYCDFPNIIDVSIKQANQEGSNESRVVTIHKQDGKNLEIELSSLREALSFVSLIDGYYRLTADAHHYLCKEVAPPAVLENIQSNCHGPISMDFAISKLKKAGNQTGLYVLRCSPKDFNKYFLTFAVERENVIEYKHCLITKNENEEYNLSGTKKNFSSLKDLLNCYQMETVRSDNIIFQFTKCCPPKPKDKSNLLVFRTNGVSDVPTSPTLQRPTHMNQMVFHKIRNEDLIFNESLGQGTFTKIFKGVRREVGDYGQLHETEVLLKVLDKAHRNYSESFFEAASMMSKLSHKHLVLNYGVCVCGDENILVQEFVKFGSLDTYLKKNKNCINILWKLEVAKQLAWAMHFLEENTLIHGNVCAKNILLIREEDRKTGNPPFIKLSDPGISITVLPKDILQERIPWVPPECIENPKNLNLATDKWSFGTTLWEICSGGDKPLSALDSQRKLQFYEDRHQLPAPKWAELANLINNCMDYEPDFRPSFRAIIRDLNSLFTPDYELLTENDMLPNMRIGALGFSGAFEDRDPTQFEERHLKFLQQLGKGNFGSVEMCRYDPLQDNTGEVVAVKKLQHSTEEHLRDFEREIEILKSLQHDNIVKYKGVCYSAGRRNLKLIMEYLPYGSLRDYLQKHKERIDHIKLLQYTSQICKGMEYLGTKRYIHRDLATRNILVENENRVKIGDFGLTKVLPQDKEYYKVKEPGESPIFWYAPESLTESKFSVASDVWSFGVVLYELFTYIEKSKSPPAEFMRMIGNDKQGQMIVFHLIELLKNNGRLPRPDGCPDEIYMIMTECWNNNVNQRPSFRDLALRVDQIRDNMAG
assayReadout: inhibition at 1 µM (%)
Only the number, expressed in %, is required.

Input: Look up inhibition at 1 µM: CC[C@@H](C)Nc1nc(Nc2cc(N3C[C@@H]4C[C@H]3CN4C)cnc2F)ncc1C
Output: 31

###

experiment: Octanol-water partition coefficient, log D of the compound in sodium phosphate buffer at pH 7.4 after 5 hrs by shake-flask assay; assay type: physicochemical
The compounds listed here are annotated with their logD at 5 h.
Kindly provide the number alone.

Input: Look up logD at 5 h: COCCN1CCN(c2cc(Nc3ncc(C)c(Nc4cccc(CO)c4)n3)cc(S(C)(=O)=O)c2)CC1
Output: 1.9

Input: Look up logD at 5 h: CN1CCN(c2cc(Nc3ncc(Br)c(Nc4cccc(CO)c4)n3)cc(S(C)(=O)=O)c2)CC1
Output: 2.43

Input: Look up logD at 5 h: CN1CCN(c2cc(Nc3nccc(Nc4cccc(CO)c4)n3)cc(S(C)(=O)=O)c2)CC1
Output: 1.75

###

The compounds listed here are annotated with their IC50.
biological target: UniProt P23458; test: Inhibition of cytoplasmic recombinant human GST-tagged JAK1 (886 to 1154 residues) expressed in insect cells using FITC-C6-KKHTDDGYMPMSPGVA-NH as substrate after 10 mins by caliper assay
Only the number, expressed in µM, is required.

Solved entries (count: 5):
Input: Look up IC50: Cc1cnc(Nc2cc(N3CCOCC3)cc(S(C)(=O)=O)c2)nc1Nc1cccc(CO)c1
Output: 0.013

Input: Look up IC50: Cc1cnc(Nc2cc(N3C[C@@H]4C[C@H]3CN4C)cc(C(F)F)c2F)nc1Nc1cccc(CO)c1
Output: 0.055

Input: Look up IC50: Cc1cnc(Nc2cc(N3C[C@@H]4C[C@H]3CN4C)cnc2F)nc1Nc1cccc(CO)c1
Output: 0.04

Input: Look up IC50: Cc1cnc(Nc2cc(N3C[C@@H]4C[C@H]3CN4C)cnc2F)nc1N[C@H](C)C(C)C
Output: 0.026

Input: Look up IC50: Cc1cnc(Nc2cc(N3C[C@@H](C)N[C@@H](C)C3)cc(S(C)(=O)=O)c2)nc1Nc1cccc(CO)c1
Output: 0.005

Further cases:
Input: Look up IC50: CC(=O)N1CCN(c2cc(Nc3ncc(C)c(Nc4cccc(CO)c4)n3)cc(S(C)(=O)=O)c2)CC1
Output: 0.01

Input: Look up IC50: Cc1cnc(Nc2cc(C(F)F)cc(N3C[C@@H]4C[C@H]3CN4C)c2)nc1Nc1cccc(CO)c1
Output: 0.016

###

test: AUC in CD1 mouse at 50 mg/kg, po administered via gavage by LC/MS/MS analysis; type: ADME, organism-based; conditions: in vivo
assayReadout: AUC (µM·h)
Only the number, expressed in µM·h, is required.

Input: Look up AUC: CC[C@@H](C)Nc1nc(Nc2cc(N3C[C@@H]4C[C@H]3CN4C)cnc2F)ncc1C
Output: 18.9

###

The compounds listed here are annotated with their Ratio IC50.
species: Homo sapiens; assay: Selectivity ratio of IC50 for recombinant human JAK2 (831 to 1132 residues) expressed in insect cell to IC50 for cytoplasmic recombinant human GST-tagged JAK1 (886 to 1154 residues) expressed in baculovirus
Kindly provide the number alone.

Solved entries (count: 3):
Input: Look up Ratio IC50: Cc1cnc(Nc2cccc(N3CCN(C)CC3)c2)nc1Nc1cccc(CO)c1
Output: 6.5

Input: Look up Ratio IC50: CN1CCN(c2cc(Nc3nccc(Nc4cccc(CO)c4)n3)cc(S(C)(=O)=O)c2)CC1
Output: 140

Input: Look up Ratio IC50: Cc1cnc(Nc2cc(N3CCOCC3)cc(S(C)(=O)=O)c2)nc1Nc1cccc(CO)c1
Output: 32

Further cases:
Input: Look up Ratio IC50: CN1CCN(c2cc(Nc3ncc(F)c(Nc4cccc(CO)c4)n3)cc(S(C)(=O)=O)c2)CC1
Output: 150

###

The molecules listed here are annotated with their pIC50.
target: Tyrosine-protein kinase JAK3 (Homo sapiens); assay: Inhibition of recombinant human JAK3 (781 to 1124 residues) expressed in insect cells using 5FAM-GEEPLYWSFPAKKK-NH2 as substrate after 10 mins by caliper assay
Sequence (P52333 whole entry, the tested form may be a part): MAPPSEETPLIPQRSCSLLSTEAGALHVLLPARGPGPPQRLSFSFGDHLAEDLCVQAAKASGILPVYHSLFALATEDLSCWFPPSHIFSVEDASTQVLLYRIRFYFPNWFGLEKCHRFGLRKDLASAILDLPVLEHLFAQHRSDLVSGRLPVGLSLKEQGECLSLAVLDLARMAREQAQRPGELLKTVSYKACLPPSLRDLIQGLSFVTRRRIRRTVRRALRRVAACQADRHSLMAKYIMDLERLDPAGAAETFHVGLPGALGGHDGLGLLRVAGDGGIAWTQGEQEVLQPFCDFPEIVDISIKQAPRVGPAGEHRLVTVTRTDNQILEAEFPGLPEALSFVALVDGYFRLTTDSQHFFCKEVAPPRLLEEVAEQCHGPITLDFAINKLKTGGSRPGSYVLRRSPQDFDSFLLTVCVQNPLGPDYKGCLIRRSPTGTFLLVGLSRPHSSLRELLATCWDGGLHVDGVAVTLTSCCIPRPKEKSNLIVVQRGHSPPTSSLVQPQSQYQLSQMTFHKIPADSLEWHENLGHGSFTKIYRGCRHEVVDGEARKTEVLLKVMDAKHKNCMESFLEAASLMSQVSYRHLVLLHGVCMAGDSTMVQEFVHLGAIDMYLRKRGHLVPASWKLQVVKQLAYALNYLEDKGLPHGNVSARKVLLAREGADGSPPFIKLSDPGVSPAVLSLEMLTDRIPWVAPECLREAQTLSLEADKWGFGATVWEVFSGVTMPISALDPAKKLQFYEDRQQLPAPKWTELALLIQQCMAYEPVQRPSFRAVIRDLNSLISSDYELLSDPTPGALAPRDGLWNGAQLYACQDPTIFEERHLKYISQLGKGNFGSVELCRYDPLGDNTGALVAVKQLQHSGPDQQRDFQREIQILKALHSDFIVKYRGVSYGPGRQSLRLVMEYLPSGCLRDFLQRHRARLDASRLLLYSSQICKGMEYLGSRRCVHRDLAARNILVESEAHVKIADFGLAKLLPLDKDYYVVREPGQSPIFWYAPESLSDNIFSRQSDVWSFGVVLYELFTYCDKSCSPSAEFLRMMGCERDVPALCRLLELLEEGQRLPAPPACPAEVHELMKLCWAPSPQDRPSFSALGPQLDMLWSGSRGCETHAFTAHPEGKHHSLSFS
pIC50: −log10 of the molar value.

Solved entries (count: 8):
Input: Give pIC50 (Tyrosine-protein kinase JAK3 (Homo sapiens)) of the following molecule: Cc1cnc(Nc2cccc(N3CCN(C)CC3)c2)nc1Nc1cccc(CO)c1
Output: 4.69

Input: Give pIC50 (Tyrosine-protein kinase JAK3 (Homo sapiens)) of the following molecule: CC[C@@H](C)Nc1nc(Nc2cc(N3C[C@@H]4C[C@H]3CN4C)cnc2F)ncc1C
Output: < 4.52

Input: Give pIC50 (Tyrosine-protein kinase JAK3 (Homo sapiens)) of the following molecule: CN1CCN(c2cc(Nc3nccc(Nc4ccc(F)c(Cl)c4F)n3)cc(S(C)(=O)=O)c2)CC1
Output: 6.33

Input: Give pIC50 (Tyrosine-protein kinase JAK3 (Homo sapiens)) of the following molecule: Cc1cnc(Nc2cc(N3C[C@@H](C)N[C@@H](C)C3)cc(S(C)(=O)=O)c2)nc1Nc1cccc(CO)c1
Output: < 4.52

Input: Give pIC50 (Tyrosine-protein kinase JAK3 (Homo sapiens)) of the following molecule: Cc1cnc(Nc2cc(N3CCOCC3)cc(S(C)(=O)=O)c2)nc1Nc1cccc(CO)c1
Output: < 4.52

Input: Give pIC50 (Tyrosine-protein kinase JAK3 (Homo sapiens)) of the following molecule: Cc1cnc(Nc2cc(N3CCN(C)CC3)cc(S(C)(=O)=O)c2)nc1Nc1cccc(CO)c1
Output: < 4.52

Input: Give pIC50 (Tyrosine-protein kinase JAK3 (Homo sapiens)) of the following molecule: Cc1cnc(Nc2cc(N3CCNCC3)cc(S(C)(=O)=O)c2)nc1Nc1cccc(CO)c1
Output: < 4.52

Input: Give pIC50 (Tyrosine-protein kinase JAK3 (Homo sapiens)) of the following molecule: Cc1cnc(Nc2cc(N3C[C@@H]4C[C@H]3CN4C)cc(S(C)(=O)=O)c2)nc1Nc1cccc(CO)c1
Output: < 4.55

Further cases:
Input: Give pIC50 (Tyrosine-protein kinase JAK3 (Homo sapiens)) of the following molecule: CN1CCN(c2cc(Nc3ncc(F)c(Nc4cccc(CO)c4)n3)cc(S(C)(=O)=O)c2)CC1
Output: < 4.52

###

target: Tyrosine-protein kinase JAK1 (Homo sapiens, UniProt P23458); experiment: Inhibition of JAK1 in human NCI-H1975 cells assessed as reduction in STAT3 phosphorylation after 1 hr by ELISA
Sequence (P23458 whole entry): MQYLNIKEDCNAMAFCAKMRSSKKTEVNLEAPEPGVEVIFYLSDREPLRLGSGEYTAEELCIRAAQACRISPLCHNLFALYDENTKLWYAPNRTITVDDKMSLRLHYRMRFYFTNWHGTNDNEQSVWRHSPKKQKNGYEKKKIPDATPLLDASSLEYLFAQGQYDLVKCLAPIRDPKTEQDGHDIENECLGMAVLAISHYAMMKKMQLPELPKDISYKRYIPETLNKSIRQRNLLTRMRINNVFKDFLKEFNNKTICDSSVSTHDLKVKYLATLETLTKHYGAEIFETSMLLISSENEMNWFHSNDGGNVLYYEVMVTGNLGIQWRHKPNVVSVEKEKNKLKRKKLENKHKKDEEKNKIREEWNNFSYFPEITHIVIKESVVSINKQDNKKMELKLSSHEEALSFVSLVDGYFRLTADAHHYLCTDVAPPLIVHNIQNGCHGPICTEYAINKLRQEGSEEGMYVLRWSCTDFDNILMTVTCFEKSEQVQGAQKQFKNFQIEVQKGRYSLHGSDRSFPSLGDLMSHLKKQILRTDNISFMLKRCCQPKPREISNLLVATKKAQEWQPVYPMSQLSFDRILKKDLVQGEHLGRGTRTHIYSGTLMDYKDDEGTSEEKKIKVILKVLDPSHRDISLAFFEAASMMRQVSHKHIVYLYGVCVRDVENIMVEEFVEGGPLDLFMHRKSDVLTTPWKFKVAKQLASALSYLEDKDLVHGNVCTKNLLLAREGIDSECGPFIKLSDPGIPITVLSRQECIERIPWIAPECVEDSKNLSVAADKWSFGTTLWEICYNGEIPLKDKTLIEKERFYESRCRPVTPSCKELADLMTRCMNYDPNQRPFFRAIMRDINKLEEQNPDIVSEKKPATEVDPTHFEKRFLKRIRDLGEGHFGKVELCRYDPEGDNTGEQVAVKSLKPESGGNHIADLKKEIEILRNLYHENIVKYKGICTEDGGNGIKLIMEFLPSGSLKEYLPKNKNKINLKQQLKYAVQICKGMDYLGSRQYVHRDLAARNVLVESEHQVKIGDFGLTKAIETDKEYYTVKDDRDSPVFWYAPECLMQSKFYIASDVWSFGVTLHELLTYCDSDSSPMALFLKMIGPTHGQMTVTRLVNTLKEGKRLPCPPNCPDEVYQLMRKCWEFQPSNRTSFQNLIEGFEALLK
assayReadout: EC50

Solved entries (count: 2):
Input: Look up EC50: Cc1cnc(Nc2cc(N3CCN(C)CC3)cc(S(C)(=O)=O)c2)nc1Nc1cccc(CO)c1
Output: 99 nM

Input: Look up EC50: CC(=O)N1CCN(c2cc(Nc3ncc(C)c(Nc4cccc(CO)c4)n3)cc(S(C)(=O)=O)c2)CC1
Output: > 3000 nM

Now consider a different compound.
Input: Look up EC50: Cc1cnc(Nc2cc(N3CCN(CCO)CC3)cc(S(C)(=O)=O)c2)nc1Nc1cccc(CO)c1
Output: > 3000 nM
